# TGT: IL-17AA and IL-17RA (Homo sapiens)
# Construct: 10895-H02H (IL-17RA)
# TEST_DESCRIPTION: Competitive inhibition of human IL-17AA and IL-17RA binding (HTRF)
# EXPERIMENTAL_CONDITIONS: recombinant IL-17AA (His-tag) and IL-17RA (hFc-tag); read-out: IC50 for Inhibiting IL-AA/IL-RA Binding
Simple rule here: IC50 less than 10 nM is yes, otherwise no.

Qu. Consider the molecule [2H]C([2H])([2H])n1nccc1C(=O)N[C@H](C(=O)Nc1ccc([C@H](C)[C@@H](NC(=O)CC)c2ncn(CC3CC3)n2)cc1F)C(C1CC1)C1CC1 [Compound 43] . Is its IC50 strictly less than 10 nM?
Ans. yes

Qu. Consider the molecule CCn1nccc1C(=O)N[C@H](C(=O)Nc1ccc([C@H](C)[C@@H](NC(=O)COC)c2nnc(C)n2CC2CC2)cc1F)C(C1CC1)C1CC1 [Compound 18] . Is its IC50 strictly less than 10 nM?
Ans. no

Qu. Consider the molecule CCC(=O)N[C@@H](c1ncnn1CCNC1CC1)[C@@H](C)c1ccc(NC(=O)[C@@H](NC(=O)c2nonc2C)C(C2CC2)C2CC2)c(F)c1 [Compound 79] . Is its IC50 strictly less than 10 nM?
Ans. yes

Qu. Consider the molecule COCC(=O)N[C@@H](c1nncn1CC1CC1)[C@@H](C)c1ccc(NC(=O)[C@@H](NC(=O)COc2cc(C(F)F)on2)C(C2CC2)C2CC2)c(F)c1 [Compound 8] . Is its IC50 strictly less than 10 nM?
Ans. no

Qu. Consider the molecule COCC(=O)N[C@@H](c1ncnn1CC1CC1)[C@@H](C)c1ccc(NC(=O)[C@@H](NC(=O)c2ccnn2C)C(C2CC2)C2CC2)c(F)c1 [Compound 53] . Is its IC50 strictly less than 10 nM?
Ans. yes

====

For each record, write down the corresponding pIC50.
# TGT: IL-17AA and IL-17RA (Homo sapiens)
# Construct: 10895-H02H (IL-17RA)
# Sequence (Q16552 24-155): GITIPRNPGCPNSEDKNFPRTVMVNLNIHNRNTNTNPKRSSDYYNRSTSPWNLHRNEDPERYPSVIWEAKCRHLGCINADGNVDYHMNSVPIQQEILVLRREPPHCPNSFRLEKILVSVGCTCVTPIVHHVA
# TEST_DESCRIPTION: Competitive inhibition of human IL-17AA and IL-17RA binding (HTRF)
# EXPERIMENTAL_CONDITIONS: recombinant IL-17AA (His-tag) and IL-17RA (hFc-tag); read-out: IC50 for Inhibiting IL-AA/IL-RA Binding
Please keep in mind that pIC50 is minus log10 of the molar concentration; only the number is needed.

Lookup result for COCC(=O)N[C@@H](c1nncn1CC1CC1)[C@@H](C)c1ccc(NC(=O)[C@@H](NC(=O)COCC2(C(F)F)COC2)C(C2CC2)C2CC2)c(F)c1 [Compound 10] ; measured pIC50: 6.96

Lookup result for CCC(=O)N[C@@H](c1ncnn1CC1CC1)[C@@H](C)c1ccc(NC(=O)[C@H](NC(=O)c2nonc2C)C(C2CC2)C2CC2)c(F)c1 [Compound 84] ; measured pIC50: 7.51

Lookup result for CCn1ncnc1C(=O)N[C@H](C(=O)Nc1ccc([C@H](C)[C@@H](NC(=O)COC)c2ncnn2CC2CC2)cc1F)C(C1CC1)C1CC1 [Compound 50] ; measured pIC50: 8.25

Lookup result for Cc1nonc1C(=O)N[C@H](C(=O)Nc1ccc([C@H](C)[C@@H](NC(=O)COC(F)(F)F)c2ncnn2CC2CC2)cc1F)C(C1CC1)C1CC1 [Compound 64] ; measured pIC50: 8.96

Lookup result for CCC(=O)N[C@@H](c1ncnn1CC1CC1)[C@@H](C)c1ccc(NC(=O)[C@@H](NC(=O)c2ccnn2CC)C2CCC3(CC2)CC(F)(F)C3)c(F)c1 [Compound 78] ; measured pIC50: 7.32

Lookup result for CCn1nccc1C(=O)N[C@H](C(=O)Nc1ccc([C@H](C)[C@@H](NC(=O)COC)c2ncnn2CCOC)cc1F)C(C1CC1)C1CC1 [Compound 40] ; measured pIC50: 8.13

Lookup result for CCn1nccc1C(=O)N[C@H](C(=O)Nc1ccc([C@H](C)[C@@H](NC(=O)COC)c2nncn2CC23CC(F)(C2)C3)cc1F)C(C1CC1)C1CC1 [Compound 23] ; measured pIC50: 7.68

Lookup result for CCn1nccc1C(=O)N[C@H](C(=O)Nc1ccc([C@H](C)[C@@H](NC(=O)CN2CCC2)c2ncnn2CC2CC2)cc1F)C(C1CC1)C1CC1 [Compound 51] ; measured pIC50: 7.30

Lookup result for CCn1nccc1C(=O)N[C@H](C(=O)Nc1ccc([C@H](C)[C@@H](NC(=O)COC)c2nnnn2CC2CC2)cc1F)C(C1CC1)C1CC1 [Compound 24] ; measured pIC50: 8.49
